# ASSAY_METHOD_TEXT: Drug level in healthy human lung epithelial lining fluid at 400 mg, po every 12 hrs for 7 days measured after 8 hrs of last dose
# Assay type: ADME, organism-based
# CONDITION_CONTEXT: read-out: Drug uptake
MEASURED_PARAMETER: concentration at 8 h (ng/mL)
Give the number; ng/mL is assumed, so skip it.

Problem: If you can, please state the reported concentration at 8 h value of `CC[C@@H]([C@H](C)O)n1ncn(-c2ccc(N3CCN(c4ccc(OC[C@@H]5CO[C@@](Cn6cncn6)(c6ccc(F)cc6F)C5)cc4)CC3)cc2)c1=O` .
Solution: 1690

###

# ASSAY_METHOD_TEXT: Ratio of Drug level in healthy human lung epithelial lining fluid to drug level in healthy human plasma at 400 mg, po every 12 hrs for 7 days measured after 24 hrs of last dose
# Type: ADME, organism-based
MEASURED_PARAMETER: Kp at 24 h
# answer = number (no unit)

Problem: # get_value(readout='Kp at 24 h', item= CC[C@@H]([C@H](C)O)n1ncn(-c2ccc(N3CCN(c4ccc(OC[C@@H]5CO[C@@](Cn6cncn6)(c6ccc(F)cc6F)C5)cc4)CC3)cc2)c1=O [POSACONAZOLE] )
Solution: 0.92

###

# ASSAY_METHOD_TEXT: Drug level in healthy human plasma at 400 mg, po every 12 hrs for 7 days measured after 8 hrs of last dose
# Format: ADME, organism-based
# CONDITION_CONTEXT: read-out: Drug uptake
MEASURED_PARAMETER: concentration at 8 h (ng/mL)
# number only, unit ng/mL dropped from output

Problem: Return reported concentration at 8 h; argument: `CC[C@@H]([C@H](C)O)n1ncn(-c2ccc(N3CCN(c4ccc(OC[C@@H]5CO[C@@](Cn6cncn6)(c6ccc(F)cc6F)C5)cc4)CC3)cc2)c1=O`
Solution: 1730

###

# ASSAY_METHOD_TEXT: Drug level in healthy human plasma at 400 mg, po every 12 hrs for 7 days measured after 5 hrs of last dose
# Format: ADME, organism-based
# CONDITION_CONTEXT: read-out: Drug uptake
MEASURED_PARAMETER: concentration at 5 h

Problem: May I ask what concentration at 5 h has been recorded for `CC[C@@H]([C@H](C)O)n1ncn(-c2ccc(N3CCN(c4ccc(OC[C@@H]5CO[C@@](Cn6cncn6)(c6ccc(F)cc6F)C5)cc4)CC3)cc2)c1=O` ?
Solution: 1930 ng/mL

###

# ASSAY_METHOD_TEXT: Ratio of Drug level in healthy human alveolar cell to drug level in healthy human plasma at 400 mg, po every 12 hrs for 7 days measured after 3 hrs of last dose
# Format: ADME, organism-based, Pneumocyte
# CONDITION_CONTEXT: alveolar cells / plasma
MEASURED_PARAMETER: Kp at 3 h
Lab note: record the figure alone, no unit after it.

Problem: Field request: Kp at 3 h | item: CC[C@@H]([C@H](C)O)n1ncn(-c2ccc(N3CCN(c4ccc(OC[C@@H]5CO[C@@](Cn6cncn6)(c6ccc(F)cc6F)C5)cc4)CC3)cc2)c1=O [POSACONAZOLE]
Solution: 34.5

###

# ASSAY_METHOD_TEXT: AUC (0 to 24 hrs) in healthy human lung epithelial lining fluid at 200 mg, po every 12 hrs for 5 days
# Format: ADME, organism-based
# Parameters: time < 24 hr, dose 200 mg, route oral
MEASURED_PARAMETER: AUC at 24 h (ng·h/mL)
Report as a plain number; the unit ng·h/mL is understood.

Problem: Request the reported AUC at 24 h associated with CCC(C)n1ncn(-c2ccc(N3CCN(c4ccc(OCC5COC(Cn6cncn6)(c6ccc(Cl)cc6Cl)O5)cc4)CC3)cc2)c1=O (stereo unspecified) [ITRACONAZOLE]
Solution: 7400
